All values here come from PubChem BioAssay AID1259407.

tested on: CCRIS mutagenicity, Ames/micronucleus/aberration tests; experiment: CCRIS mutagenicity studies; settings: Test System: AMES SALMONELLA TYPHIMURIUM; Strain/Indicator: TA97; Metabolic Activation: HAMSTER, LIVER, S-9, AROCLOR 1254 (10%); Method: PREINCUBATION
Active and inactive are the calls of the source. No rule for the calls is given here.
Labels: yes (active), no (inactive)

compound | assigned.label
CN(C)c1ccc(N(C)C)cc1 | yes
OCC(O)CCl (configuration not stated) | no
CCCCOCCOCCSC#N | no
O=C(Cl)c1ccccc1[N+](=O)[O-] | yes
Nc1ccccc1Cl | no
ClCCCl | no
N#CC(O)c1ccccc1 (configuration not stated) | no
COc1ccc(C(=O)Nc2ccccc2)cc1[N+](=O)[O-] | yes
CCc1cc(C(N)=S)ccn1 | no
C=CC(=O)OCCCCCCOC(=O)C=C | no
Cc1ccc(C)c(N)c1 | no
CN(C)/N=N/c1nc[nH]c1C(N)=O | yes
CC(C)CCCCCOC(=O)C[S][Sn]([CH3])([S]CC(=O)OCCCCCC(C)C)[S]CC(=O)OCCCCCC(C)C | no
CCCCC(CC)COCC1CO1 (configuration not stated) | no
CCCCCCCCCCCCCCCCCC[N+](C)(C)Cc1ccccc1 | no
Nc1cccc(N)c1 | yes
CC1CCCC1 | no
CCCCCCCCCCCC(=O)[O][Sn]([CH2]CCC)([CH2]CCC)[O]C(=O)CCCCCCCCCCC | no
O=[N+]([O-])c1ccc(Nc2ccc(O)cc2)c([N+](=O)[O-])c1 | yes
ClCc1ccccc1 | no
Cc1cc(-c2ccc(N)c(C)c2)ccc1N | no
Nc1cc(Cl)c([N+](=O)[O-])cc1O | yes
C=CC(=O)OC | no
Clc1cccc2ccccc12 | no
CC(CCl)OP(=O)(OC(C)CCl)OC(C)CCl (configuration not stated) | no
Nc1ccc(Cc2ccc(N)c(Cc3ccc(N)cc3)c2)cc1 | yes
CCOP(=O)(NC(C)C)Oc1ccc(SC)c(C)c1 (configuration not stated) | no
CCCCCCC(=O)O | no
CCCCCCCCCCCCCCCCC1CO1 (configuration not stated) | no
Nc1c(Cl)cc(Cl)cc1Cl | no
CCN(CC)c1ccc2c(-c3ccccc3C(=O)O)c3ccc(=[N+](CC)CC)cc-3oc2c1 | no
Cc1c(N)cccc1N | yes

* * *

tested on: CCRIS mutagenicity, Ames/micronucleus/aberration tests; test: CCRIS mutagenicity studies; conditions: Test System: AMES SALMONELLA TYPHIMURIUM; Strain/Indicator: TA100; Metabolic Activation: S-9; Method: STANDARD PLATE
Activity calls are given as the source filed them. How the calls were made is not given here.
Labels: true = active, false = inactive

molecule | assigned.label
CCCCNc1snc2ccccc12 | false
O=C(Nc1ccccc1)Nc1snc2ccccc12 | false
Nc1ccc(-c2ccc(N)cc2[N+](=O)[O-])cc1 | true
CCC(CCOCn1cc[n+](C)c1/C=N/O)[N+](=O)[O-] (stereo not drawn) | false
CNC(=O)/C=C(\C)OP(=O)(OC)OC | false
COC(=O)c1ccc(C(=O)OC)cc1 | false
Cc1ccc2nsc(NC(=O)C(Cl)(Cl)Cl)c2c1 | true
CCCCCCC(O)CCCCCCCCCCC(=O)O (stereo not drawn) | false

* * *

tested on: CCRIS mutagenicity, Ames/micronucleus/aberration tests; experiment: CCRIS mutagenicity studies; conditions: Test System: AMES SALMONELLA TYPHIMURIUM; Strain/Indicator: TA98; Metabolic Activation: NONE; Method: PREINCUBATION
Activity calls are given as the source filed them. The rule behind the calls is not given here.
Labels: active, inactive

compound | assigned.label
Cc1cc2nc3c(ccc4ccccc43)c(C)c2cc1C | inactive
C[C@@H](O)[C@H]1C(=O)N2C(C(=O)O)=C([C@H]3CCCO3)S[C@H]12 | inactive
O=S(=O)(O)OCc1ccc2ccc3cccc4ccc1c2c34 | active
CCN(CC)N=O | active
O=C(O)C(Cl)Br (stereo not given) | inactive
CCC(=O)N(O)c1ccc(/C=C/c2ccccc2)cc1 | inactive
COC(=O)c1ccc(C(=O)OC)cc1 | inactive
Cc1c(C)c2c(c(C)c1OC(=O)CCC(=O)O)CC[C@@](C)(CCC[C@H](C)CCC[C@H](C)CCCC(C)C)O2 | inactive
O=C1CN(/N=C/c2ccc([N+](=O)[O-])o2)C(=O)N1 | active
O=CCC=O | inactive
CCCOC(C(=O)OC1CCN(C)CC1)(c1ccccc1)c1ccccc1 | inactive
CCCCNCC | inactive
COCCO | inactive
C=CCOCC1CO1 (stereo not given) | inactive
O=[N+]([O-])c1ccc(Nc2ccc(O)cc2)c([N+](=O)[O-])c1 | active
Cc1ccc(NN=NCc2ccccc2)cc1 | active
O=S(=O)(O)c1cc(S(=O)(=O)O)c2c(N=Nc3ccccc3)c(O)ccc2c1 | inactive
COC(=O)/C(C#N)=C/c1ccc([N+](=O)[O-])o1 | active
CCCCCCCOc1ccccc1NC(=O)OCCN1CCCCC1 | inactive
Nc1ncnc2c1nc(-c1ccc([N+](=O)[O-])cc1)n2-c1ccc([N+](=O)[O-])cc1 | active
COCCOCCOC | inactive
COc1ccccc1O | inactive
CN(C)N | inactive
O=S(O)CO | inactive
Cc1ncc[nH]1 | inactive
CC1OC1C (stereo not given) | inactive
COc1cc(C(C)=O)ccc1O | inactive
O=Nc1c(O)ccc2ccccc12 | inactive
CCCCCCCCBr | inactive
NC(=O)c1ccccc1O | inactive

* * *

system: CCRIS mutagenicity, Ames/micronucleus/aberration tests; test: CCRIS mutagenicity studies; conditions: Test System: AMES SALMONELLA TYPHIMURIUM; Strain/Indicator: TA100; Metabolic Activation: NONE; Method: STANDARD PLATE
Active and inactive are the calls of the source. The rule behind the calls is not given here.
Labels: t for active, f for inactive

compound | system | assigned.label
O[C@@H]1[C@@H]2O[C@@H]2c2c(ccc3nc4ccc5ccccc5c4cc23)[C@H]1O | CCRIS mutagenicity, Ames/micronucleus/aberration tests | t
O=c1[nH]cnc2c1ncn2[C@H]1CC[C@@H](CO)O1 | CCRIS mutagenicity, Ames/micronucleus/aberration tests | f
Nc1ccc2[nH]c3ccccc3c2c1 | CCRIS mutagenicity, Ames/micronucleus/aberration tests | f
C=CC(=O)OCCCCCCOC(=O)C=C | CCRIS mutagenicity, Ames/micronucleus/aberration tests | f
O=[N+]([O-])c1cc2ccc3cccc4ccc(c1)c2c34 | CCRIS mutagenicity, Ames/micronucleus/aberration tests | t
O=[N+]([O-])c1cc2c3ccccc3ccc2c2ccccc12 | CCRIS mutagenicity, Ames/micronucleus/aberration tests | t
O=C1CN(/N=C/c2ccc([N+](=O)[O-])o2)C(=O)N1 | CCRIS mutagenicity, Ames/micronucleus/aberration tests | t
COc1c(Cl)ccc2oc3cc4c(c(OC)c3c(=O)c12)[C@@H]1C=CO[C@@H]1O4 | CCRIS mutagenicity, Ames/micronucleus/aberration tests | t
Cn1cnc([N+](=O)[O-])c1-c1ccccc1 | CCRIS mutagenicity, Ames/micronucleus/aberration tests | f
O=C(Nc1snc2ccccc12)c1ccccc1 | CCRIS mutagenicity, Ames/micronucleus/aberration tests | f
C/C=C\c1cc(OC)c(OC)cc1OC | CCRIS mutagenicity, Ames/micronucleus/aberration tests | f
CC(C)(CO)[C@@H](O)C(=O)NCCCO | CCRIS mutagenicity, Ames/micronucleus/aberration tests | f
CC(=O)c1ccccn1 | CCRIS mutagenicity, Ames/micronucleus/aberration tests | f
COc1cc(N)c(C)cc1N | CCRIS mutagenicity, Ames/micronucleus/aberration tests | f
COc1c(Cl)cc2c(c1OC)N(C)[C@@H]1N3C(=O)[C@@]4(C)SS[C@@]3(C(=O)N4C)[C@H](O)[C@]21O | CCRIS mutagenicity, Ames/micronucleus/aberration tests | f
O=CN(O)c1ccc(Oc2ccc(Cl)cc2)cc1 | CCRIS mutagenicity, Ames/micronucleus/aberration tests | f
CN1CCN(C2=Nc3cc(Cl)ccc3Nc3ccccc32)CC1 | CCRIS mutagenicity, Ames/micronucleus/aberration tests | f
O=C(n1ccnc1)n1ccnc1 | CCRIS mutagenicity, Ames/micronucleus/aberration tests | f
C[Si](C)(C)O[Si](C)(C)C | CCRIS mutagenicity, Ames/micronucleus/aberration tests | f
CC1=C(/C=C/C(C)=C/C=C/C(C)=C/C=C/C=C(C)/C=C/C=C(\C)C=O)C(C)(C)CCC1 | CCRIS mutagenicity, Ames/micronucleus/aberration tests | f
CCCO | CCRIS mutagenicity, Ames/micronucleus/aberration tests | f
O=[N+]([O-])c1ccc2ccc3c4c(cc5ccc1c2c53)CCC=C4 | CCRIS mutagenicity, Ames/micronucleus/aberration tests | f
CNC(=O)/C=C(\C)OP(=O)(OC)OC | CCRIS mutagenicity, Ames/micronucleus/aberration tests | f
CC(C)CN(N)CC(C)C | CCRIS mutagenicity, Ames/micronucleus/aberration tests | t
CN(C)c1ccc(C(=C2C=CC(=[N+](C)C)C=C2)c2ccccc2)cc1 | CCRIS mutagenicity, Ames/micronucleus/aberration tests | f
COc1ccc(N(CCCl)CCCl)c2oc([N+](=O)[O-])cc12 | CCRIS mutagenicity, Ames/micronucleus/aberration tests | t
CC(=O)ON(OCc1ccc(Cl)cc1)C(=O)c1ccccc1 | CCRIS mutagenicity, Ames/micronucleus/aberration tests | t
CC1(C)S[C@@H]2[C@H](NC(=O)Cc3ccccc3)C(=O)N2[C@H]1C(=O)O | CCRIS mutagenicity, Ames/micronucleus/aberration tests | f
CC1(C)C[C@@H]2[C@@]34C[C@]3(C(C=O)=C[C@]2(O)C1)[C@@H](O)OC4=O | CCRIS mutagenicity, Ames/micronucleus/aberration tests | t
O=C1C=CC(=O)CC(=O)C1 | CCRIS mutagenicity, Ames/micronucleus/aberration tests | f
NN1C(=O)c2ccccc2C1=O | CCRIS mutagenicity, Ames/micronucleus/aberration tests | f
Cc1ccc(CN2C3c4ccccc4-c4ccccc4C32)cc1 (stereo unspecified) | CCRIS mutagenicity, Ames/micronucleus/aberration tests | t
CS(C)=O.[Cl-].[Cl-].[Pt+2].c1ccncc1 | CCRIS mutagenicity, Ames/micronucleus/aberration tests | f
O=C1CCC(=O)N1c1ccc(Cl)c(Cl)c1Cl | CCRIS mutagenicity, Ames/micronucleus/aberration tests | f
CCO[Si](C)(OCC)OCC | CCRIS mutagenicity, Ames/micronucleus/aberration tests | f
Nc1ncc2[nH]cnc2n1 | CCRIS mutagenicity, Ames/micronucleus/aberration tests | f
CN(C)CCCNc1c2ccccc2nc2c(N(CCO)CCO)ccc([N+](=O)[O-])c12 | CCRIS mutagenicity, Ames/micronucleus/aberration tests | t
Cc1cc(C)nc(SC(=O)OC(C)(C)C)n1 | CCRIS mutagenicity, Ames/micronucleus/aberration tests | f
O=[N+]([O-])c1ccc2c3cccc4cccc(c5c([N+](=O)[O-])ccc1c25)c43 | CCRIS mutagenicity, Ames/micronucleus/aberration tests | f
ClC[C@@H]1CO1 | CCRIS mutagenicity, Ames/micronucleus/aberration tests | t
CC(C)(C)NCC(O)COc1cccc2c1CC(O)C(O)C2 (stereo unspecified) | CCRIS mutagenicity, Ames/micronucleus/aberration tests | f
CCC1(CC(=O)O)OCCc2c1[nH]c1c(C)cccc21 (stereo unspecified) | CCRIS mutagenicity, Ames/micronucleus/aberration tests | f
O=C(O)c1cc(Cl)cc2cccnc12 | CCRIS mutagenicity, Ames/micronucleus/aberration tests | f
Nc1ccc2ccc3cccc4ccc1c2c34 | CCRIS mutagenicity, Ames/micronucleus/aberration tests | f
O=[N+]([O-])c1[nH]cnc1-c1ccccc1 | CCRIS mutagenicity, Ames/micronucleus/aberration tests | t
C[C@H](CCC(=O)O)[C@H]1CC[C@H]2[C@@H]3[C@H](O)C[C@@H]4C[C@H](O)CC[C@]4(C)[C@H]3CC[C@]12C | CCRIS mutagenicity, Ames/micronucleus/aberration tests | f
C=C(C)C(C)=O | CCRIS mutagenicity, Ames/micronucleus/aberration tests | f
N[C@@H](CS)C(=O)O | CCRIS mutagenicity, Ames/micronucleus/aberration tests | t
C[Si]1(C)O[Si](C)(C)O[Si](C)(C)O1 | CCRIS mutagenicity, Ames/micronucleus/aberration tests | f
N/C(=N\O)c1ccc([N+](=O)[O-])o1 | CCRIS mutagenicity, Ames/micronucleus/aberration tests | t
COc1c(C(C)(C)C)cc([N+](=O)[O-])c(C)c1[N+](=O)[O-] | CCRIS mutagenicity, Ames/micronucleus/aberration tests | f
